experiment: Drug elimination in human patient kidney at starting dose of 9 mg/m2 administered as 5 or 20 mins intravenous infusion on days 1 to 5 every 21 days; format: ADME; conditions: urine, read-out: Drug excretion
Recorded Metric: dose excreted (%)

>>> endpoint_result("C[C@@H](Oc1ccc(Oc2cnc3ccc(Cl)cc3n2)cc1)C(=O)O [R(+)XK469]")
7

###

assay: Elimination half life in iv dosed dog; type: ADME, organism-based, Canis lupus familiaris; settings: in vivo, read-out: beta t1/2 (converted)
Recorded Metric: half-life (h)

>>> endpoint_result("C[C@@H](Oc1ccc(Oc2cnc3ccc(Cl)cc3n2)cc1)C(=O)O [R(+)XK469]")
13.2
